Data origin, for the record: patent US20170320956A1

Assignment: determine reported pKd for the given binders.
- subject-of-test: T1, recombinant human LIGHT-214K, FLAG-tagged extracellular domain (human)
- T1 construct: the IgK leader peptide is marked only by underlining (not visible here), so its residues were not removed; Trimer
- T1 chain: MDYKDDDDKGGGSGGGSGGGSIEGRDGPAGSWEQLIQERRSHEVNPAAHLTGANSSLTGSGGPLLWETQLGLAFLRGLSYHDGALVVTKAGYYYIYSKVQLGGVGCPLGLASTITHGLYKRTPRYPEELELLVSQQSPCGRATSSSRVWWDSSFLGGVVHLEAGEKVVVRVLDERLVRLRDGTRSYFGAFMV
- experiment: SPR ProteOn, mAb captured on anti-mouse IgG, LIGHT 256 nM, 25 C, apparent affinity
- Protocol: SPR analysis was carried out using the ProteOn™ XPR36 Array System (BioRad). Anti-mouse IgG (GE Healthcare BR-1008-38) was immobilised on a GLC biosensor surface using amine coupling, the surface was then blocked using 1M ethanolamine. […] Apparent affinities for the LIGHT-antibody interaction were determined using the 1:1 model inherent to the ProteOn XPR36 analysis software. The assay was run using HBS-EP (Teknova) as running buffer and carried out at 25° C.
One number for each entry, as −log10 of the molar value.

binder	assay-value
31A10 (purified from hybridoma supernatant) (antibody, V domains shown, Murine constant / human variable chimeric IgG, kappa, Protein G purified from hybridoma supernatant) VH: QVQLQESGPGLVKPSGTLSLTCAVSGGSISSINWWNWVRQPPGKGLEWIGEVSHSGITNYNPSLKSRVTMSVDKAKNQFSLKLNSVTAADTAVYYCARERAVADYHGMDVWGQGTTVTVSS VL: AIQLTQSPSSLSASVGDRVTITCRASQGISSALAWFQQKPGKPPKLLIFDASDLESGVSSRFSGSGSGTDFTLTISSLQPGDFATYYCQQFNSYPITFGQGTRLEIK	9.46

List reported pKd for each of these binders:
1. 18E04 (purified from hybridoma supernatant, mouse IgG) (antibody, V domains shown, Murine C / human V chimeric IgG, lambda, purified from hybridoma supernatant) VH: QVLLVQSGAEVKKPGASVKVSCKASGYTFTHFDINWVRQATGQGLEWMGWMNPDSDNTDYAQEFQGRVTMTRDTSISTAYMELSSLRSEDTAVYYCARGGTTLDYWGQGTLVTVSS VL: SYELTQPPSVSVSPGQTARITCSGDALPKKYAYWYQQKSGQAPVLVIYEDSKRPSGIPERFSGSSSGTMATLTISGAQVEDEADYYCYSTDSSDNHVIFGGGTKLTVL
2. 98C07 (purified from hybridoma supernatant, mouse IgG) (antibody, V domains shown, Murine C / human V chimeric IgG, kappa, purified from hybridoma supernatant) VH: QVQLVESGGGLVKPGGSLRLSCAASGFTFSDYYMSWIRQAPGKGLEWVSYISRSSFIYYSESVKGRFTISRDNAKNSLYLQMNSLRAEDTAVYYCARWELSPFDYWGQGTLVTVSS VL: DIQMTQSPSSLSASVGDRVTITCRASQGISNYLAWFQQKPGKAPKSLIYAASSLQSGVPSKFSGSGSGTDFTLTISSLQPEDFATYFCQQYNTYPFTFGPGTKVDIK

Outgoing:
1: 8.63; 2: 6.53
